System: HeLa
Method description: Antiproliferative activity against human HeLa cells by CellTiter-96 non-radioactive assay
Format: functional, cell-based
Task for the reader: assign each of the following compounds its reported EC50.
Please state the value followed by its unit.

Cc1c(C(=O)O)sc2nc(Cc3nnc(S)n3-c3ccccc3)[nH]c(=O)c12    120 nM
NNC(=O)Cc1nc2sc3c(c2c(=O)[nH]1)CCCC3    2520 nM
CCn1c(S)nnc1Cc1nc2sc(C(=O)O)c(C)c2c(=O)[nH]1    2340 nM

Q) Give the measured EC50 of CCNC(=S)NNC(=O)Cc1nc2sc3c(c2c(=O)[nH]1)CCCC3 .
A) 32 nM
